Biological target: EGFR (Homo sapiens (Human))
Sequence (P00533 669-1210): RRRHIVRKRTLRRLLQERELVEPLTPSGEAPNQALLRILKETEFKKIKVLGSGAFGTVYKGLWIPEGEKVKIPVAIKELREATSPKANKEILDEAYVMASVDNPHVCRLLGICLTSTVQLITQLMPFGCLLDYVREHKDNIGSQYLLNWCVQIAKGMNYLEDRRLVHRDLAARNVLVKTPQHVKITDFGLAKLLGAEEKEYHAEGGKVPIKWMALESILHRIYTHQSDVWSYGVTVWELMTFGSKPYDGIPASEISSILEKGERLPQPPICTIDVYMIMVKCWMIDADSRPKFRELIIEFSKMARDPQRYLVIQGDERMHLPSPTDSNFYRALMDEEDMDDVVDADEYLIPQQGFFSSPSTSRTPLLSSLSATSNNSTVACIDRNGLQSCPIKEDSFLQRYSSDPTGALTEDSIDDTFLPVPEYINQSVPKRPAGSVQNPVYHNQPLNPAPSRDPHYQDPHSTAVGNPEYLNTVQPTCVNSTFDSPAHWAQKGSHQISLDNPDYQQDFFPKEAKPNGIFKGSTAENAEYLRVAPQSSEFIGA
parameter: pIC50
Lab note — pIC50 values are minus log10 of concentrations in M.

Req: GET pIC50 | system: EGFR (Homo sapiens (Human)) | item: CCN1CCC(n2cc([C@@H](Nc3cc(Cl)c4ncc(C#N)c(Nc5ccc(F)c(Cl)c5)c4c3)c3cccnc3)nn2)CC1 [Example 362]
Resp: 5.40

* * *

Listing: pIC50 of selected compounds
Biological target: UniProt:P41279
Sequence (P41279 30-397): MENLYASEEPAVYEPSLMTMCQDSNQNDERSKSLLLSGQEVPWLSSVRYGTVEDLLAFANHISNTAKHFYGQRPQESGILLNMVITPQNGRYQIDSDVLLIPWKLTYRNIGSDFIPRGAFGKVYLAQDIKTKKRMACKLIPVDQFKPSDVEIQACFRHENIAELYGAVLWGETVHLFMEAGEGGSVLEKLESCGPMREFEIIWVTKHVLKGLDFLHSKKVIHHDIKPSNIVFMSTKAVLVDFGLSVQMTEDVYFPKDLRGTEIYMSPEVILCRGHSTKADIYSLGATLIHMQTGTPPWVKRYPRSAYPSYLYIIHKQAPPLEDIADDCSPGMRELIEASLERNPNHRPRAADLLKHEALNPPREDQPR
Assay: High Throughput Cot Biochemical Assay
Conditions: read-out: IC50 HTRF; Cot HTRF (TR-FRET KinEASE) biochemical assay, 400 μM ATP
Lab note — pIC50 values are minus log10 of concentrations in M.

Solved entries (count: 3):
Req: Could you please provide reported pIC50 for `Cc1nc(F)ccc1[C@H](Nc1cc(C#N)c2ncc(C#N)c(NCC(C)(C)C(F)(F)F)c2c1)c1cn(C2(C3CC3)CC2)nn1` ? Thanks!
Resp: 8.52

Req: Could you please provide reported pIC50 for `COc1nccc2c([C@H](Nc3cc(Cl)c4ncc(C#N)c(NCC(C)(C)C(F)(F)F)c4c3)c3cn(C4(C)CC4)nn3)cccc12` ? Thanks!
Resp: 8.22

Req: Could you please provide reported pIC50 for `Cn1ccc2c([C@H](Nc3cc(C#N)c4ncc(C#N)c(NCC(C)(C)C)c4c3)c3cn(C(CF)CF)nn3)cccc2c1=O` ? Thanks!
Resp: 8.52

Others:
Req: Could you please provide reported pIC50 for `COc1nccc2c([C@H](Nc3cc(C#N)c4ncc(C#N)c(NCC(C)(C)C)c4c3)c3cn(C4(C(F)F)CC4)nn3)cccc12` ? Thanks!
Resp: 8.40

Req: Could you please provide reported pIC50 for `Cn1ccc2c([C@H](Nc3cc(C#N)c4ncc(C#N)c(NCC(C)(C)C)c4c3)c3cn(C4(C5CC5)CC4)nn3)cccc2c1=O` ? Thanks!
Resp: 8.70

Req: Could you please provide reported pIC50 for `Cc1nc(F)ccc1[C@H](Nc1cc(C#N)c2ncc(C#N)c(NCC(C)(C)C)c2c1)c1nnn(C2CC2)c1C1CC1` ? Thanks!
Resp: 8.40

Req: Could you please provide reported pIC50 for Cc1nc(F)ccc1[C@H](Nc1cc(C#N)c2ncc(C#N)c(NCC(C)(C)C(F)(F)F)c2c1)c1cn(C2(C(F)F)CC2)nn1 [Example 832] ? Thanks!
Resp: 8.70

Req: Could you please provide reported pIC50 for `COc1nccc2c([C@H](Nc3cc(Cl)c4ncc(C#N)c(NCC(C)(C)C)c4c3)c3cn(C4CC4)nn3)cccc12` ? Thanks!
Resp: 8.22

Req: Could you please provide reported pIC50 for `COc1nccc2c([C@H](Nc3cc(Cl)c4ncc(C#N)c(NCC(C)(C)C)c4c3)c3cn(C4(C(F)F)CC4)nn3)cccc12` ? Thanks!
Resp: 8.05

Req: Could you please provide reported pIC50 for `CC(C)(CNc1c(C#N)cnc2c(C#N)cc(N[C@H](c3cn(C4(C(F)F)CC4)nn3)c3cccc4c(=O)[nH]ccc34)cc12)C(F)(F)F` ? Thanks!
Resp: 8.52
